Target: UniProt P11712
Sequence (P11712 whole entry): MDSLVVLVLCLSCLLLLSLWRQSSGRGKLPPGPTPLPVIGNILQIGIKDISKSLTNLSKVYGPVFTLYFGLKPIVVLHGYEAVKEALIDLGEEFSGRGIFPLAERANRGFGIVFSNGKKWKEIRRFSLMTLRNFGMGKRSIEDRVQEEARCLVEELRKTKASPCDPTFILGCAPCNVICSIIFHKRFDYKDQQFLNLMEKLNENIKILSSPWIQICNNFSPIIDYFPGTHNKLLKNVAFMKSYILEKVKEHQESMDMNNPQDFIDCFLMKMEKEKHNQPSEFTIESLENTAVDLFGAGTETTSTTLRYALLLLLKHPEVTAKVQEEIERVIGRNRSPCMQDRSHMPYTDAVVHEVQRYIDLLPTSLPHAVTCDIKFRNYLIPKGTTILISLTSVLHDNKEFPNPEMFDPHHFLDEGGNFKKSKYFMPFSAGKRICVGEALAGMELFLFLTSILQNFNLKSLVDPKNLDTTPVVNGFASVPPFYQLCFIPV
pIC50: −log10 of the molar value.
PROPERTY_NAME: pIC50

Recorded pIC50 for `COc1cccc2c1[C@H](c1ccccc1)N(C(=O)CNC[C@@H](C)O)CC2` , please?
< 4.30

* * *

Experiment: Clearance in human liver microsomes
Type: ADME
Settings: read-out: CLH
PROPERTY_NAME: CLint scaled (mL/min/kg)
Number in mL/min/kg, nothing else.

Recorded CLint scaled for `COc1cccc2c1[C@H](c1ccccc1)N(C(=O)CNC[C@@H](C)O)CC2` , please?
45.9

* * *

Assay: Inhibition of N-type calcium channel in human IMR-32 cells by FLIPR calcium imaging assay
Format: cell-based
# reported IC50; entries follow

- COMPOUND: "CC[C@@H](O)CNCC(=O)N1CCc2ccccc2C1C1CCCCC1 (some centres not stated)"
  IC50: "1.5 µM"
- COMPOUND: "C[C@@H](O)CNCC(=O)N1CCc2cccc(F)c2C1C1CCCCC1 (some centres not stated)"
  IC50: "2.5 µM"
- COMPOUND: "C[C@@H](O)CNCC(=O)N1CCc2c(F)cccc2C1C1CCCCC1 (some centres not stated)"
  IC50: "1.2 µM"
- COMPOUND: "COc1cccc2c1C(C1CCCCC1)N(C(=O)CNC[C@@H](C)O)CC2 (some centres not stated)"
  IC50: "1.4 µM"
- COMPOUND: "CC[C@H](O)CNCC(=O)N1CCc2ccccc2C1C1CCCCC1 (some centres not stated)"
  IC50: "1.9 µM"
- COMPOUND: "Cc1cccc2c1C(c1ccccc1)N(C(=O)CNC[C@@H](C)O)CC2 (some centres not stated)"
  IC50: "1.3 µM"
- COMPOUND: "CC(C)c1ccc2c(c1)C(C1CCCCC1)N(C(=O)CNC[C@@H](C)O)CC2 (some centres not stated)"
  IC50: "1.3 µM"
- COMPOUND: "C[C@@H](O)CNCC(=O)N1CCc2cccc(F)c2C1c1ccccc1 (some centres not stated)"
  IC50: "1 µM"

Recorded IC50 for CC(C)(O)CNCC(=O)N1CCc2ccccc2C1C1CCCCC1 (configuration not stated) , please?
1.7 µM

Recorded IC50 for Cc1ccc2c(c1)CCN(C(=O)CNC[C@@H](C)O)C2C1CCCCC1 (some centres not stated) , please?
2.4 µM

Recorded IC50 for C[C@@H](O)CNCC(=O)N1CCc2ccc(F)cc2C1C1CCCCC1 (some centres not stated) , please?
2.3 µM

Recorded IC50 for `COc1cccc2c1[C@H](c1ccccc1)N(C(=O)CNC[C@@H](C)O)CC2` , please?
1.4 µM

Recorded IC50 for C[C@H](O)CNCC(=O)N1CCc2ccccc2C1C1CCCCC1 (some centres not stated) , please?
1.5 µM

Recorded IC50 for `C[C@@H](O)CNCC(=O)N1CCc2ccccc2[C@@H]1c1ccccc1` , please?
2.4 µM

Recorded IC50 for C[C@@H](O)CNCC(=O)N1CCc2cc(F)ccc2C1C1CCCCC1 (some centres not stated) , please?
1.6 µM

Recorded IC50 for CC(C)C[C@@H](CO)NCC(=O)N1CCc2ccccc2C1C1CCCCC1 (some centres not stated) , please?
1.1 µM

Recorded IC50 for CC(C)(C)[C@@H](CO)NCC(=O)N1CCc2ccccc2C1C1CCCCC1 (some centres not stated) , please?
1.4 µM

* * *

# reported activity at 30 min; entries follow
Molecular target: CYP3A4 (Homo sapiens, UniProt P08684)
Sequence (P08684 whole entry): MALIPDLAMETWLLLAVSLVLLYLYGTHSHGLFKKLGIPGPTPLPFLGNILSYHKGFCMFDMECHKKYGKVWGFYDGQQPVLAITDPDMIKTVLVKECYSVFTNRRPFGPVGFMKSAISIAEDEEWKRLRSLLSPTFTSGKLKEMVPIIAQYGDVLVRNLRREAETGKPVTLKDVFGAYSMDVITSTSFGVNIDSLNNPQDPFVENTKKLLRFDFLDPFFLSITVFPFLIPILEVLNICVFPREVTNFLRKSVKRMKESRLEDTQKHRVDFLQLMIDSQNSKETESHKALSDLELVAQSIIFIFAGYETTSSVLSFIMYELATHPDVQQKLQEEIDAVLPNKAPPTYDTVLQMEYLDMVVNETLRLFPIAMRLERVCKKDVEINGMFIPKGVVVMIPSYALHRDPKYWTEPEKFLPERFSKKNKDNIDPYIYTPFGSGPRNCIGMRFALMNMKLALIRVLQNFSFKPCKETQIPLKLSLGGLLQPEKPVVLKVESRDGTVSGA
Test: Time-dependent inhibition of CYP3A4 in human liver microsomes assessed as residual enzyme activity using midazolam as substrate preincubated for 30 mins by fluorescence-based assay
Details: probe midazolam
Number in %, nothing else.

Example entries and their recorded answers appear below.
- COMPOUND: "C[C@H](O)CNCC(=O)N1CCc2ccccc2C1C1CCCCC1 (stereo partly specified)"
  RECORDED_VALUE: 91
- COMPOUND: "C[C@@H](O)CNCC(=O)N1CCc2ccccc2C1C1CCCCC1 (stereo partly specified)"
  RECORDED_VALUE: 95
- COMPOUND: "CC(C)C[C@@H](CO)NCC(=O)N1CCc2ccccc2C1C1CCCCC1 (stereo partly specified)"
  RECORDED_VALUE: 46
- COMPOUND: "COc1cccc2c1[C@@H](c1ccccc1)N(C(=O)CNC[C@@H](C)O)CC2"
  RECORDED_VALUE: 91
- COMPOUND: "COc1cccc2c1C(C1CCCCC1)N(C(=O)CNC[C@@H](C)O)CC2 (stereo partly specified)"
  RECORDED_VALUE: 58
- COMPOUND: "C[C@@H](O)CNCC(=O)N1CCc2ccccc2[C@@H]1C1CCCCC1"
  RECORDED_VALUE: 87

Recorded activity at 30 min for CC[C@H](O)CNCC(=O)N1CCc2ccccc2C1C1CCCCC1 (stereo partly specified) , please?
83

Recorded activity at 30 min for C[C@@H](O)CNCC(=O)N1CCc2cccc(F)c2C1c1ccccc1 (stereo partly specified) , please?
95

* * *

# reported activity at 30 min; entries follow
Target: CYP3A4 (Homo sapiens, UniProt P08684)
Assay: Time-dependent inhibition of CYP3A4 in human liver microsomes assessed as residual enzyme activity using midazolam as substrate preincubated for 30 mins by fluorescence-based assay
Details: probe midazolam
Number in %, nothing else.

Example entries and their recorded answers appear below.
- COMPOUND: "COc1cccc2c1[C@H](c1ccccc1)N(C(=O)CNC[C@@H](C)O)CC2"
  TESTED_ON: "CYP3A4 (Homo sapiens, UniProt P08684)"
  RECORDED_VALUE: 90
- COMPOUND: "CC[C@@H](O)CNCC(=O)N1CCc2ccccc2C1C1CCCCC1 (stereo not given in full)"
  TESTED_ON: "CYP3A4 (Homo sapiens, UniProt P08684)"
  RECORDED_VALUE: 88
- COMPOUND: "COc1cccc2c1CCN(C(=O)CNC[C@@H](C)O)C2C1CCCCC1 (stereo not given in full)"
  TESTED_ON: "CYP3A4 (Homo sapiens, UniProt P08684)"
  RECORDED_VALUE: 63
- COMPOUND: "C[C@@H](O)CNCC(=O)N1CCc2ccc(F)cc2C1C1CCCCC1 (stereo not given in full)"
  TESTED_ON: "CYP3A4 (Homo sapiens, UniProt P08684)"
  RECORDED_VALUE: 80
- COMPOUND: "C[C@@H](O)CNCC(=O)N1CCc2cc(F)ccc2C1C1CCCCC1 (stereo not given in full)"
  TESTED_ON: "CYP3A4 (Homo sapiens, UniProt P08684)"
  RECORDED_VALUE: 91

Recorded activity at 30 min for C[C@@H](O)CNCC(=O)N1CCc2c(F)cccc2C1C1CCCCC1 (stereo not given in full) , please?
49

* * *

Assay: Inhibition of N-type calcium channel in human IMR-32 cells by FLIPR calcium imaging assay
Type: cell-based
Sorting guide: entries reporting IC50 beneath 2000 nM go in the 1 pile, the rest go in the 0 pile.

Consider the worked cases shown below.
- MOLECULE: "Cc1ccc2c(c1)C(C1CCCCC1)N(C(=O)CNC[C@@H](C)O)CC2 (some centres not stated)"
  CLASS_LABEL: 1
- MOLECULE: "CCc1ccc2c(c1)C(C1CCCCC1)N(C(=O)CNC[C@@H](C)O)CC2 (some centres not stated)"
  CLASS_LABEL: 1

Answer whether the molecule COc1ccc2c(c1)CCN(C(=O)CNC[C@@H](C)O)C2C1CCCCC1 (some centres not stated) has IC50 strictly less than 2000 nM
1

Answer whether the molecule `COc1cccc2c1[C@@H](c1ccccc1)N(C(=O)CNC[C@@H](C)O)CC2` has IC50 strictly less than 2000 nM
0

Answer whether the molecule `C[C@@H](O)CNCC(=O)N1CCc2ccccc2[C@@H]1C1CCCCC1` has IC50 strictly less than 2000 nM
1

Answer whether the molecule C[C@@H](O)CNCC(=O)N1CCc2cc(C#N)ccc2C1C1CCCCC1 (some centres not stated) has IC50 strictly less than 2000 nM
0

* * *

Target: CYP3A4 (Homo sapiens)
Assay: Reversible inhibition of CYP3A4 in human liver microsomes assessed as residual enzyme activity using midazolam as substrate by fluorescence-based assay
Settings: probe midazolam
# reported activity; entries follow
Number in %, nothing else.

Example entries and their recorded answers appear below.
- COMPOUND: "C[C@@H](O)CNCC(=O)N1CCc2cc(F)ccc2C1C1CCCCC1 (stereo partly drawn)"
  TESTED_ON: "CYP3A4 (Homo sapiens)"
  VALUE_UNITS: "%"
  activity: 92
- COMPOUND: "CC(C)c1ccc2c(c1)C(C1CCCCC1)N(C(=O)CNC[C@@H](C)O)CC2 (stereo partly drawn)"
  TESTED_ON: "CYP3A4 (Homo sapiens)"
  VALUE_UNITS: "%"
  activity: 88

Now for another entry.
Record lookup: for CYP3A4 (Homo sapiens), what activity belongs to C[C@@H](O)CNCC(=O)N1CCc2ccccc2C1C1CCCCC1 (stereo partly drawn) ?
92

Provenance of the data: ChEMBL document CHEMBL3600316
